Measured values drawn from PubChem BioAssay (NCI) for this set.

Test system: NCI-H23 lung
measurementProtocol: NCI tumour cell line growth inhibition, 48 h
property: TGI (µM)
Number only, in µM; omit the unit.

What does the record list as TGI for O=C(CC(O)(C(F)(F)F)C(F)(F)Cl)CC(O)(C(F)(F)F)C(F)(F)Cl (stereo not given) ?
4.34

Would you kindly repeat that for CC1=CC(C)(c2c[nH]c3ccccc23)CC(C)(C)c2c1[nH]c1ccccc21 (stereo not given) ?
28.5

Would you kindly repeat that for `CC(=O)Oc1ccc2c(c1)[C@@]1(C)CCCC(C)(C)[C@@H]1CC2` ?
37.6

Would you kindly repeat that for `O=C1Nc2cc(-c3cccc(O)c3)ccc2/C1=C/c1ccc[nH]1` ?
4.56
